Where do the numbers come from? From patent US20220267321A1.

Biological target: CDK1/CyclinB1 (Homo sapiens, UniProt P06493)
Sequence (P06493 whole entry): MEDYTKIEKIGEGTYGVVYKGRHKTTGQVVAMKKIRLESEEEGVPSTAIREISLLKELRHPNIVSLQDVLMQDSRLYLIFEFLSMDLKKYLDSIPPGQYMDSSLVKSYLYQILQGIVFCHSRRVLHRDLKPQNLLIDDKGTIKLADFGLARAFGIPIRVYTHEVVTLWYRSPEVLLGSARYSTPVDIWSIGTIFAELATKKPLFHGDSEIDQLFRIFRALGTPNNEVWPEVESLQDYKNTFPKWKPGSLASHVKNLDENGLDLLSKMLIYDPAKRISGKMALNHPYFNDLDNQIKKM
Sequence (P14635 whole entry partner): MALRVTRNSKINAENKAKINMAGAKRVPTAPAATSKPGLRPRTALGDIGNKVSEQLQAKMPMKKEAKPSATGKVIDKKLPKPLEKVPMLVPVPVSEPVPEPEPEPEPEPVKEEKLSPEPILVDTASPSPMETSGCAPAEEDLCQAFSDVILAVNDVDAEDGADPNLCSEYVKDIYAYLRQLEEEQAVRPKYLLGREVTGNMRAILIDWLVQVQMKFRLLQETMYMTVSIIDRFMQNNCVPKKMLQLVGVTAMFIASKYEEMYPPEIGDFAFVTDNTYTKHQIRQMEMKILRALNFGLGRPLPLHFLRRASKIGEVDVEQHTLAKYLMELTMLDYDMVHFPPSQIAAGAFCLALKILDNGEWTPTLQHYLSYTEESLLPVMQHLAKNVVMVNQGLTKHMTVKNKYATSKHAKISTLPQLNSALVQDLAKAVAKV
Assay: In vitro CDK1/CyclinB1 enzyme activity test (ADP-Glo)
Conditions: 25 μM ATP, 25° C., 120 minutes
Where a name gives a salt, the structure may show the parent alone.
ENDPOINT: pIC50
One number for each entry, as −log10 of the molar value.

Asked: Give its pIC50 value. Item: COCCN1CCC(c2cc3c(-c4cnn(CC5CC5)c4)c(Cl)cnc3[nH]2)CC1 [5 (hydrochloride)]
Given back: 5.81

# per-item lookup of pIC50; items listed below
1. Clc1cnc2[nH]c(C3CCNCC3)cc2c1-c1cnn(CC2CCCC2)c1 [Compound 8 (formate)]
2. COc1cc(F)ccc1-c1cc(Nc2cc(CS(C)(=N)=O)ccn2)ncc1F (centres unmarked) [BAY1251152]
3. CN1CCC(c2cc3c(-c4cnn(CC5CC5)c4)c(Cl)cnc3[nH]2)CC1 [Compound 2 (formate)]
4. Clc1ccc(Cn2cc(-c3c(Cl)cnc4[nH]c(C5CCNCC5)cc34)cn2)cc1 [Compound 12]
5. Clc1cnc2[nH]c(C3CCNCC3)c(Cl)c2c1-c1cnn(CC2CC2)c1 [Compound 7]
6. c1cc(-c2cnn(CC3CC3)c2)c2cc(C3CCNCC3)[nH]c2n1 [Compound 3 (formate)]
7. CC(=O)N[C@@H]1CCC[C@H](C(=O)Nc2cc(-c3cnn4c3CC(C)(C)C4)c(Cl)cn2)C1 [AZD4573]

Given back:
1: 6.75; 2: 6.52; 3: 6.59; 4: 6.58; 5: 6.44; 6: 6.06; 7: 8.70

---

Molecular target: CDK9/CyclinT1 (Homo sapiens, UniProt P50750)
Sequence (P50750 whole entry): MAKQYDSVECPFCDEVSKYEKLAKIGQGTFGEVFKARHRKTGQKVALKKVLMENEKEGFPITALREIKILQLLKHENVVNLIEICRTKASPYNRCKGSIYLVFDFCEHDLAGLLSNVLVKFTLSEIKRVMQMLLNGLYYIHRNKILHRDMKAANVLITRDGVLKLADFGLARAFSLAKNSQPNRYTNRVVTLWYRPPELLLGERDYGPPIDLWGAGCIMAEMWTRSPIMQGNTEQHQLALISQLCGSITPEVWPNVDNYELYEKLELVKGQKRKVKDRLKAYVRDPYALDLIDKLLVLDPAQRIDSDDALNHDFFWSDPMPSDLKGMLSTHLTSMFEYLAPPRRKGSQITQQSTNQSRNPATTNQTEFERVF
Sequence (O60563 whole entry partner): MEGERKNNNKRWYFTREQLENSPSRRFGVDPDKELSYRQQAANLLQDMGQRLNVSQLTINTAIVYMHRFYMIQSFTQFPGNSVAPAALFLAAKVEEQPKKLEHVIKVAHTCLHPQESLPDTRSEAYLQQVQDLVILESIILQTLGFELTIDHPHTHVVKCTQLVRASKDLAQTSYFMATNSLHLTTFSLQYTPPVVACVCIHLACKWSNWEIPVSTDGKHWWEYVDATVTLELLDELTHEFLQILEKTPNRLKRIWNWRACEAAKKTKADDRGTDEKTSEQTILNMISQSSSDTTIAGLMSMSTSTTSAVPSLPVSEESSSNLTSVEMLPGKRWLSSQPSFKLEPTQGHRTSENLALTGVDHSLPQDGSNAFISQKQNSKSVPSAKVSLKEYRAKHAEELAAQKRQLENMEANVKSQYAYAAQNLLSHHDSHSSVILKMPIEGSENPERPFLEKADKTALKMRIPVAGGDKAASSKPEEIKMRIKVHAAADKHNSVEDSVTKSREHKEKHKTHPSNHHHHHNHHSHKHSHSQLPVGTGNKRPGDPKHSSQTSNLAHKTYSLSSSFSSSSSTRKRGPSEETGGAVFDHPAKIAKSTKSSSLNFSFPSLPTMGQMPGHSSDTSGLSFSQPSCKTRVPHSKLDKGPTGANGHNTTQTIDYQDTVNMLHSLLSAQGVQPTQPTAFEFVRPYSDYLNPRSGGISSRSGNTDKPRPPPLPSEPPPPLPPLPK
Test: In vitro CDK9/CyclinT1 enzyme activity test (ADP-Glo)
Settings: 100 μM ATP, 25° C., 120 minutes
Structures can show the parent of a compound that is named as a salt.
ENDPOINT: IC50 (nM)
One number for each entry, in nM.

Solved cases (2 shown):
Asked: Give its IC50 value. Item: Clc1cnc2[nH]c(C3CCNCC3)cc2c1-c1cnn(CC2CC2)c1 [Compound 1 (hydrochloride)]
Given back: 7.7

Asked: Give its IC50 value. Item: COCC(C)N1CCC(c2cc3c(-c4cnn(CC5CC5)c4)c(Cl)cnc3[nH]2)CC1 (stereo not drawn) [Compound 6 (formate)]
Given back: 9.6

--- query ---
Asked: Give its IC50 value. Item: CN1CCC(c2cc3c(-c4cnn(CC5CC5)c4)c(Cl)cnc3[nH]2)CC1 [Compound 2 (formate)]
Given back: 7.1

---

Target: CDK2/CyclinE1 (Homo sapiens, UniProt P24941)
Experiment: In vitro CDK2/CyclinE1 enzyme activity test (ADP-Glo)
Details: 150 μM ATP, 25° C., 60 minutes
Counter-ions that a name gives are not always drawn.
Would you mind telling me the reported pIC50 of each entry?
Answers are plain numbers, as −log10 of the molar value.

Asked: Give its pIC50 value. Item: Cn1cc(-c2c(Cl)cnc3[nH]c(C4CCNCC4)cc23)cn1 [Compound 15 (hydrochloride)]
Given back: 6.16

Asked: Give its pIC50 value. Item: Clc1cnc2[nH]c(C3CCNCC3)cc2c1-c1cnn(Cc2ccccc2)c1 [Compound 9 (formate)]
Given back: 6.98

# per-item lookup of pIC50; items listed below
1. Clc1ccccc1Cn1cc(-c2c(Cl)cnc3[nH]c(C4CCNCC4)cc23)cn1 [Compound 10 (formate)]
2. Clc1cccc(Cn2cc(-c3c(Cl)cnc4[nH]c(C5CCNCC5)cc34)cn2)c1 [Compound 11 (formate)]
3. CC(=O)N[C@@H]1CCC[C@H](C(=O)Nc2cc(-c3cnn4c3CC(C)(C)C4)c(Cl)cn2)C1
4. Clc1ccc(Cn2cc(-c3c(Cl)cnc4[nH]c(C5CCNCC5)cc34)cn2)cc1
5. c1cc(-c2cnn(CC3CC3)c2)c2cc(C3CCNCC3)[nH]c2n1 [Compound 3 (formate)]
6. Clc1cnc2[nH]c(C3CCNCC3)nc2c1-c1cnn(CC2CC2)c1

Given back:
6.26
6.67
9.00
6.26
6.03
5.87
